Field: zone score, E. faecalis CL 4877. Provide a value for each of the compounds that follow.
test system: E. faecalis (CL 4877); test: Zone of inhibition screen, 96 well agar array format; type: cell-based; set-up: scale not given here; conditions: zone of inhibition relative to 1 mg/ml stock solution of p-chlorobiphenylvancomycin
Answers are plain numbers.

Below are worked cases with known answers.
- compound: "CC(=O)N[C@@H](Cc1c[nH]cn1)C(=O)N[C@H]1C(=O)N[C@@H](CC(N)=O)C(=O)N[C@H]2C(=O)NC3C(=O)N[C@H](C(=O)N[C@@H](C(=O)O)c4cc(O)cc(O)c4-c4cc3ccc4O)[C@H](O)c3ccc(c(Cl)c3)Oc3cc2cc(c3OC2OC(CO)C(O)C(O)C2OC2CC(C)(NCc3ccc(-c4ccc(Cl)cc4)cc3)C(O)C(C)O2)Oc2ccc(cc2Cl)[C@H]1O (stereo partly drawn) [Compound 181]"
  zone score, E. faecalis CL 4877: 2
- compound: "CC(=O)Nc1ccc(C(=O)NC2C(=O)NC(CC(N)=O)C(=O)NC3C(=O)NC4C(=O)NC(C(=O)NC(C(=O)O)c5cc(O)cc(O)c5-c5cc4ccc5O)C(O)c4ccc(c(Cl)c4)Oc4cc3cc(c4OC3OC(CO)C(O)C(O)C3OC3CC(C)(NCc4ccc(-c5ccc(Cl)cc5)cc4)C(O)C(C)O3)Oc3ccc(cc3Cl)C2O)cc1NC(C)=O (stereo not drawn) [Compound 104]"
  zone score, E. faecalis CL 4877: 2

Please give measured zone score, E. faecalis CL 4877 of the following entry: CSCCC(NC(C)=O)C(=O)NC1C(=O)NC(CC(N)=O)C(=O)NC2C(=O)NC3C(=O)NC(C(=O)NC(C(=O)O)c4cc(O)cc(O)c4-c4cc3ccc4O)C(O)c3ccc(c(Cl)c3)Oc3cc2cc(c3OC2OC(CO)C(O)C(O)C2OC2CC(C)(NCc3ccc(-c4ccc(Cl)cc4)cc3)C(O)C(C)O2)Oc2ccc(cc2Cl)C1O (stereo not drawn) [Compound 182] 2
